Answer each item with its documented Ki.
Target: UniProtKB P43140
Sequence (P43140 whole entry): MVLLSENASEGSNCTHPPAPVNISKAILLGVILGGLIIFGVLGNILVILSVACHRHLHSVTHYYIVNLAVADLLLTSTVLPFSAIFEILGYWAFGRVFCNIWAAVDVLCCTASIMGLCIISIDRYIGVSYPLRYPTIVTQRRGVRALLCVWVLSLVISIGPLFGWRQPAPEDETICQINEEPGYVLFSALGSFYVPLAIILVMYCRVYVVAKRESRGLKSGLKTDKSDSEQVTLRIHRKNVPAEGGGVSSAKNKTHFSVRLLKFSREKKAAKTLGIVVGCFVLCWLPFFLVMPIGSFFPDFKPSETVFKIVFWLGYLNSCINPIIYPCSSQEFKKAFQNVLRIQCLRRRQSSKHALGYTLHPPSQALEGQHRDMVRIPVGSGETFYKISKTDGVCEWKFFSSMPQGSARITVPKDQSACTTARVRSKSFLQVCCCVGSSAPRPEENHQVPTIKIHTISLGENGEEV
Assay: [3H]-prazosin radioligand binding, cloned α1a (rat) adrenoreceptor in LTK cells
Conditions: cloned receptor in LTK cell membranes, [3H]prazosin 0.2 nM
Counter-ions that a name gives are not always drawn.
Numbers only, in nM.

>>> reported_result("Cl.Cl.O=c1[nH]c2c(sc3cccnc32)c(=O)n1CCCN1CCN2c3ccccc3OCC2C1 (single isomer, unassigned; (+)) [Example 1, dihydrochloride]")
1.84
>>> reported_result("COc1cccc2c1N1CCN(CCn3c(=O)[nH]c4c(sc5cccnc54)c3=O)CC1CO2.Cl.Cl (single isomer, unassigned; (-)) [Example 7, dihydrochloride]")
0.864

I need Ki for every entry listed below, if you could help.
1. COc1cccc2c1N1CCN(CCCn3c(=O)[nH]c4c(sc5cccnc54)c3=O)CC1CO2.Cl.Cl.Cl (single isomer, unassigned; (+)) [Example 17, trihydrochloride]
2. COc1cccc2c1N1CCN(CCCCn3c(=O)[nH]c4c(sc5ncccc54)c3=O)CC1CO2 (single isomer, unassigned; (-)) [Example 11, trihydrochloride]
3. COc1cccc2c1N1CCN(CCCCn3c(=O)[nH]c4c(sc5ncccc54)c3=O)CC1CO2.Cl.Cl.Cl (single isomer, unassigned; (+)) [Example 15, trihydrochloride]

**A:**
[4.44, 0.24, 0.447]

----------
Target: α1d (rat) adrenoreceptor (Rattus norvegicus, UniProt P23944)
Sequence (P23944 whole entry): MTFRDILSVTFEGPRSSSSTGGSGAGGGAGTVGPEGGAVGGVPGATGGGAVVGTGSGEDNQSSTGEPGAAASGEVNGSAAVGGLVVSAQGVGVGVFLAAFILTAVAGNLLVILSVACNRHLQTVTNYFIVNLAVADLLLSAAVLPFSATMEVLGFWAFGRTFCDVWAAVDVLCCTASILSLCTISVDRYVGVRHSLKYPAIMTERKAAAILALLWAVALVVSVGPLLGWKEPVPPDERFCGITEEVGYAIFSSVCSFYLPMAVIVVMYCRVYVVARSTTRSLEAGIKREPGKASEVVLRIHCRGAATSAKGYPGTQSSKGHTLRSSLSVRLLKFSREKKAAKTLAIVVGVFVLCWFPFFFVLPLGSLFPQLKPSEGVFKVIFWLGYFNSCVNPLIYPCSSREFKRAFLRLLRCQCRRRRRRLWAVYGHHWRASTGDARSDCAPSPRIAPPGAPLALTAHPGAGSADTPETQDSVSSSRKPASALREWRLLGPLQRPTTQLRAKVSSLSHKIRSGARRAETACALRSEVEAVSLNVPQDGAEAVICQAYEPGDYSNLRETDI
Assay: [3H]-prazosin radioligand binding, cloned α1d (rat) adrenoreceptor in LTK cells
Conditions: cloned receptor in LTK cell membranes, [3H]prazosin 0.2 nM
Structures can show the parent of a compound that is named as a salt.
Classify: Fulfilled when Ki is strictly less than 5 nM; Not fulfilled when Ki is not.

Example results:
>>> category("COc1cccc2c1N1CCN(CCn3c(=O)[nH]c4c(sc5cccnc54)c3=O)CC1CO2.Cl.Cl (single isomer, unassigned; (-)) [Example 7, dihydrochloride]")
"Fulfilled"
>>> category("COc1cccc2c1N1CCN(CCCCn3c(=O)[nH]c4c(sc5ncccc54)c3=O)CC1CO2.Cl.Cl.Cl (single isomer, unassigned; (+)) [Example 15, trihydrochloride]")
"Fulfilled"
>>> category("COc1cccc2c1N1CCN(CCCn3c(=O)[nH]c4c(sc5cccnc54)c3=O)CC1CO2.Cl.Cl.Cl (single isomer, unassigned; (-)) [Example 9, trihydrochloride]")
"Fulfilled"
>>> category("COc1cccc2c1N1CCN(CCCn3c(=O)[nH]c4c(sc5cccnc54)c3=O)CC1CO2.Cl.Cl.Cl (single isomer, unassigned; (+)) [Example 17, trihydrochloride]")
"Not fulfilled"
>>> category("COc1cccc2c1N1CCN(CCn3c(=O)[nH]c4c(sc5ncc(Cl)nc54)c3=O)CC1CO2.Cl.Cl (single isomer, unassigned; (-)) [Example 13, dihydrochloride]")
"Fulfilled"

**Q:** Just wondering, is Ki of COc1cccc2c1N1CCN(CCCCn3c(=O)[nH]c4c(sc5cccnc54)c3=O)CC1CO2 (single isomer, unassigned; (+)) [Example 14, trihydrochloride] below 5 nM?
**A:** Fulfilled

**Q:** Is 5 nM strictly greater than the compound's reported Ki? compound: COc1cccc2c1N1CCN(CCCCn3c(=O)[nH]c4c(sc5ncc(Cl)nc54)c3=O)CC1CO2.Cl.Cl (single isomer, unassigned; (-)) [Example 12, dihydrochloride]
**A:** Fulfilled

**Q:** Lab note: Ki threshold 5 nM. Does this compound come in strictly under it? Cl.Cl.O=c1[nH]c2c(sc3cccnc32)c(=O)n1CCCN1CCN2c3ccccc3OCC2C1 (single isomer, unassigned; (+)) [Example 1, dihydrochloride]
**A:** Not fulfilled

**Q:** API: query returns whether the compound falls strictly under 5 nM in Ki. Query: COc1cccc2c1N1CCN(CCCCn3c(=O)[nH]c4c(sc5ncccc54)c3=O)CC1CO2 (single isomer, unassigned; (-)) [Example 11, trihydrochloride]
**A:** Fulfilled

**Q:** Here's an entry: COc1cccc2c1N1CCN(CCn3c(=O)[nH]c4c(sc5cccnc54)c3=O)CC1CO2.Cl.Cl.Cl (single isomer, unassigned; (+)) [Example 16, trihydrochloride] . Is its Ki below 5 nM?
**A:** Fulfilled

**Q:** Ki under 5 nM? Item: O=c1[nH]c2c(sc3cccnc32)c(=O)n1CCCN1CCN2c3ccccc3OCC2C1 (single isomer, unassigned; (-)) [Example 2, dihydrochloride]
**A:** Not fulfilled

**Q:** Consider Cl.Cl.O=c1[nH]c2c(sc3ncccc32)c(=O)n1CCCCN1CCN2c3ccccc3OCC2C1 (single isomer, unassigned; (+)) [Example 5, dihydrochloride] . Does its Ki lie strictly below 5 nM?
**A:** Fulfilled

**Q:** For this compound, is Ki lower than 5 nM? Cl.Cl.O=c1[nH]c2c(sc3ncccc32)c(=O)n1CCCCN1CCN2c3ccccc3OCC2C1 (single isomer, unassigned; (-)) [Example 6, dihydrochloride]
**A:** Not fulfilled

**Q:** I'd appreciate it if you could check whether O=c1[nH]c2c(sc3cccnc32)c(=O)n1CCCCN1CCN2c3ccccc3OCC2C1 (single isomer, unassigned; (-)) [Example 4, dihydrochloride] has Ki smaller than 5 nM.
**A:** Not fulfilled
